IC50 values, listed per item
# targetSystem: methionyl-tRNA synthetase (Trypanosoma brucei)
# assayNotes: inhibition of trypanosomal methionyl-tRNA synthetase – biochemical, fluorescence polarization, dose response, orthogonal assay for T. brucei MetRS inhibitor project, late-stage follow-up (AID 686969)
observedProperty: IC50

[[record]]
compound = "O=C(CC(=O)Nc1cccc(Cl)c1)NN=Cc1ccccc1"
observedresult = "6.03 µM"

[[record]]
compound = "O=C(C[C@H]1C(=O)N(Cc2ccccc2)C[C@@H]1c1ccc(Br)cc1)Nc1ccc(Br)cc1"
observedresult = "2.97 µM"

[[record]]
compound = "O=C(NCc1nc2ccccc2[nH]1)C1=C[C@H](c2ccc(Br)cc2)C[C@H](OCCCCO)O1"
observedresult = "3.11 µM"

[[record]]
compound = "O=C(NCc1nc2ccccc2[nH]1)C1=C[C@H](c2csc3ccccc23)C[C@H](OCCCCO)O1"
observedresult = "1.79 µM"

[[record]]
compound = "O=C(CC=NOCc1ccc([N+](=O)[O-])cc1)Nc1ccc(Br)cc1"
observedresult = "1.31 µM"

[[record]]
compound = "CCCCCCCCCC1NC(C(=O)O)Cc2c1[nH]c1ccccc21 (stereo unspecified)"
observedresult = "4.27 µM"


---

IC50 values, listed per item
# targetSystem: methionyl-tRNA synthetase (Trypanosoma brucei)
# assayNotes: inhibition of trypanosomal methionyl-tRNA synthetase – biochemical, fluorescence polarization, dose response, orthogonal assay for T. brucei MetRS inhibitor project, late-stage follow-up (AID 686969)
observedProperty: IC50

[[record]]
smilesinput = "O=C(N/C(=C\\c1cccnc1)c1nc2ccccc2[nH]1)c1cccc(Br)c1"
observedproperty = "IC50"
observedresult = "5.65 µM"

[[record]]
smilesinput = "COc1ccccc1-n1c(SCC(=O)Nc2ccc(Cl)cc2)nc(O)c(Cc2ccccc2)c1=O"
observedproperty = "IC50"
observedresult = "4.59 µM"

[[record]]
smilesinput = "O=C(NCCc1nc2ccccc2[nH]1)c1ccc(Cl)c([N+](=O)[O-])c1"
observedproperty = "IC50"
observedresult = "0.331 µM"

